assay: Selectivity index, ratio of IC50 for cytotoxicity against human HCT-116 cells assessed as inhibition of cell growth to MIC for antimycobacterial activity against Mycobacterium tuberculosis H37Rv assessed as reduction in microbial growth; type: toxicity, cell-based
Each entry below carries its reported selectivity ratio.
Reply with the value as a number alone.

{"ITEM_SMILES": "Cc1cc(=O)oc2cc(OCc3cn(Cc4ccc(Oc5ccccc5)c(O)c4)nn3)ccc12", "selectivity ratio": 19.1}
{"ITEM_SMILES": "CCCCCCc1ccc(Oc2ccc(Cn3cc(CNc4ccc([N+](=O)[O-])c5nonc45)nn3)cc2)c(O)c1", "selectivity ratio": 3.5}

Now consider the entry below.
I'd like to know its selectivity ratio. The compound in question is CCN(CC)c1ccc2c(OCc3cn(Cc4ccc(Oc5ccccc5)c(O)c4)nn3)cc(=O)oc2c1 0.4

###

test: Selectivity index, ratio of IC50 for cytotoxicity against human HepG2 cells assessed as inhibition of cell growth to MIC for antimycobacterial activity against Mycobacterium tuberculosis H37Rv assessed as reduction in microbial growth; format: toxicity, cell-based
OUTCOME_MEASURE: selectivity ratio
Please reply with the number alone, leaving off any unit.

Previously resolved entries follow.
{"ITEM_SMILES": "CCN(CC)c1ccc2c(OCc3cn(Cc4ccc(Oc5ccccc5)c(O)c4)nn3)cc(=O)oc2c1", "selectivity ratio": 1.3}
{"ITEM_SMILES": "CCCCCCc1ccc(Oc2ccc(Cn3cc(CNc4ccc([N+](=O)[O-])c5nonc45)nn3)cc2)c(O)c1", "selectivity ratio": 10.8}

--- query ---
So what's the measured selectivity ratio for this one? Cc1cc(=O)oc2cc(OCc3cn(Cc4ccc(Oc5ccccc5)c(O)c4)nn3)ccc12 24.8

###

Recorded selectivity ratio values for a group of molecules are listed next.
assay: Selectivity index, ratio of IC50 for cytotoxicity against human WI-38 cells assessed as inhibition of cell growth to MIC for antimycobacterial activity against Mycobacterium tuberculosis H37Rv assessed as reduction in microbial growth; type: toxicity, cell-based

{"ITEM_SMILES": "CCCCCCc1ccc(Oc2ccc(Cn3cc(CNc4ccc([N+](=O)[O-])c5nonc45)nn3)cc2)c(O)c1", "OUTCOME_MEASURE": "selectivity ratio", "ENDPOINT_RESULT": 21.2}
{"ITEM_SMILES": "CCN(CC)c1ccc2c(OCc3cn(Cc4ccc(Oc5ccccc5)c(O)c4)nn3)cc(=O)oc2c1", "OUTCOME_MEASURE": "selectivity ratio", "ENDPOINT_RESULT": 0.5}

For the molecule shown here, Cc1cc(=O)oc2cc(OCc3cn(Cc4ccc(Oc5ccccc5)c(O)c4)nn3)ccc12 , give the reported selectivity ratio. > 80

###

assay: Selectivity index, ratio of IC50 for cytotoxicity against human Caco-2 cells assessed as inhibition of cell growth to MIC for antimycobacterial activity against Mycobacterium tuberculosis H37Rv assessed as reduction in microbial growth; format: toxicity, cell-based
Parameter: selectivity ratio. Scope: all listed entries.
Give your answer as a number; write no unit.

These recorded examples may help you get a feel for the data.
{"ITEM_SMILES": "Cc1cc(=O)oc2cc(OCc3cn(Cc4ccc(Oc5ccccc5)c(O)c4)nn3)ccc12", "selectivity ratio": 20}
{"ITEM_SMILES": "CCCCCCc1ccc(Oc2ccc(Cn3cc(CNc4ccc([N+](=O)[O-])c5nonc45)nn3)cc2)c(O)c1", "selectivity ratio": 10.5}

# next compound below
Fill blank: measured selectivity ratio of the compound CCN(CC)c1ccc2c(OCc3cn(Cc4ccc(Oc5ccccc5)c(O)c4)nn3)cc(=O)oc2c1 is ____. 0.9
